Experiment: Pharmacokinetic study of LCA in mice brain tissues (non-compartmental analysis)
Assay type: in vivo, Swiss albino mice
Conditions: male, Swiss albino, mouse, brain, ip, 20 mg/kg
Description: Mice were sacrificed by cervical dislocation, and their brains were collected and separated from the cerebellum. […] For pharmacokinetic analysis, 30 adult male Swiss albino mice were randomly divided into six groups (n = 5 for each group), according to sample collection times. […] Collected brain samples were then extracted and derivatized as described previously and then further analyzed using the GC–MS/MS in MRM mode using the established MRM transitions. […]
readout-type: half-life
// return the numeric value with its unit appended

// half-life value for C=CC(C)(C)c1cc(/C=C/C(=O)c2ccc(O)cc2)c(OC)cc1O [LCA] : 17.1 h
